assayed-system: cyanide resistant quinol enzyme of Trypanosoma (Trypanosoma brucei brucei, UniProt Q26710)
Sequence (Q26710 whole entry): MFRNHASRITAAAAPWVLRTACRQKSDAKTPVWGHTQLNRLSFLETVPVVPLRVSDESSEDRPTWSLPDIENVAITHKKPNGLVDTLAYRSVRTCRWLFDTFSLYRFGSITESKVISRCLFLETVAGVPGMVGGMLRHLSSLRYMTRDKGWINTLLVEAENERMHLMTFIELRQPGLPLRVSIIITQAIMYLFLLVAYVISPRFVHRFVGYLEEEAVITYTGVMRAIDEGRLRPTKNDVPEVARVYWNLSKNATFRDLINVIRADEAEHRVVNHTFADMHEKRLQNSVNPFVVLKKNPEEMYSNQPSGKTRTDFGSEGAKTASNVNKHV
procedure-details: Respiration inhibition on the cyanide resistant quinol enzyme of Trypanosoma (recombinant enzyme)
Source text: Antitrypanosoma Action (IC50) The respiration inhibition effect of the novel phenol derivatives on the cyanide resistant quinol enzyme of Trypanosoma was examined with the use of a recombinant enzyme.
pIC50: −log10 of the molar value.
Short version: pIC50 at least 9 is True, less is False.

Use these answered entries as a reference point.
> print(dat)
                                   compound  classification
1  C/C(=C\Cc1c(O)c(Cl)c(C)c(/C=N/O)c1O)CC/C=C(\C)[C@@H]1CC(=O)C(C)(C)O1           False
2  Cc1c(Cl)c(O)c(CCC(C)CCCC(C)C)c(O)c1C=O (racemic)            True
3  Cc1c(Cl)c(O)c(CCC(C)CCCC(C)[C@@H]2CC(=O)C(C)(C)O2)c(O)c1C=O (mixture of isomers)            True
4  CC(C)=CCCC(C)CC(O)c1c(O)c(Cl)c(C)c(C=O)c1O (centres unmarked)           False
5   CCCCCCCCCC/C=C/c1c(O)c(Cl)c(C)c(C=O)c1O            True
6     CCCCCCCC/C=C/c1c(O)c(Cl)c(C)c(C=O)c1O            True
7  CCCCCCCCCCCC(O)c1c(O)cc(C)c(C=O)c1O (centres unmarked)           False
8      CCCCCCCCCC/C=C/c1c(O)c(Cl)cc(C=O)c1O            True

Task: Test whether the compound CCCCCCC/C=C/c1c(O)c(Cl)c(C)c(C=O)c1O records pIC50 of 9 or higher.
Output: True

Task: // inclusive: pIC50 at least 9? input: CCCCCCCCCCCC(O)c1c(O)ccc(C=O)c1O (centres unmarked)
Output: False

----------
melting point: recorded values

> print(dat)
                                   compound  experimental.readout   test.value
1  CCCCCCCCCCCC(O)c1c(O)c(Cl)cc(C=O)c1O (stereo not shown)         melting point  78 to 79 °C
2  Cc1c(Cl)c(O)c(CCC(C)CCCC(C)C)c(O)c1C=O (racemic)         melting point  66 to 67 °C
3         CCCCCCCCCc1c(O)c(Cl)c(C)c(C=O)c1O         melting point  89 to 90 °C

Task: melting point for CCCCCCCC/C=C/c1c(O)c(Cl)c(C)c(C=O)c1O ?
Output: 83 to 84 °C

Task: Return reported melting point; argument: CCCCCCC/C=C/c1c(O)c(Cl)c(C)c(C=O)c1O
Output: 79.5 to 80.5 °C

Task: Which melting point value belongs to CCCCCCCCCCCC(O)c1c(O)c(Cl)cc(C(=O)OC)c1O (stereo not shown) ?
Output: 96 to 97 °C

Task: # input compound: C/C(=C\Cc1c(O)c(Cl)c(C)c(/C=N/O)c1O)CC/C=C(\C)[C@@H]1CC(=O)C(C)(C)O1 ; wanted: its melting point
Output: 102 to 103 °C
